Can you tell me NF-kB reporter for the items I'm about to list?
- Test system: RAW-Dual (murine macrophage reporter line)
- PROCEDURE_TEXT: NF-kB reporter (SEAP) activity fold change vs agonist alone; higher = enhanced NF-kB activity
- RUN_CONDITIONS: modulator concentration 10 µM; agonist: MPLA […]
Numbers only.

| MOLECULE | READOUT_NAME | ENDPOINT_RESULT |
| --- | --- | --- |
| C=C(C)CSC1=C(C#N)C(c2ccccc2)CC(=O)N1 (centres undefined) | NF-kB reporter | 0.951 |
| COc1ccc(CCn2c(C)c(C)n3c4c(=O)n(CCC(C)C)c(=O)n(C)c4nc23)cc1OC | NF-kB reporter | 1.15 |
| COC(=O)/C=C/C(=O)OC | NF-kB reporter | 1.01 |

Quick one: give me NF-kB reporter for each item below, same order please.
1. COc1ccc(C=CC(=O)O)cc1OC
2. O=C(NCC1CN(c2ccc(N3CCOCC3=O)cc2)C(=O)O1)c1ccc(Cl)s1 (centres undefined)
3. CCC(=O)Nc1ccc(S(=O)(=O)N2CCSC(c3ccccc3C)CC2)c(C)c1 (centres undefined)
4. O=C(C=Cc1ccc(O)cc1)c1ccc(O)cc1O

Data returned:
1
0.984
0.937
1.74

---

- System: RAW-Dual (murine macrophage reporter line)
- PROCEDURE_TEXT: NF-kB reporter (SEAP) activity fold change vs agonist alone; higher = enhanced NF-kB activity
- RUN_CONDITIONS: modulator concentration 10 µM; agonist: MPLA […]
Can you tell me NF-kB reporter for the items I'm about to list?
Numbers only.

| COMPOUND | READOUT_NAME | ENDPOINT_RESULT |
| --- | --- | --- |
| O=C(CN(c1cc(Cl)cc(Cl)c1)S(=O)(=O)c1ccccc1)N1CCCCCC1 | NF-kB reporter | 1.13 |
| COc1cccc(O)c1O | NF-kB reporter | 0.321 |
| CCCN1CCC(NCCc2ccc(Cl)cc2)CC1 | NF-kB reporter | 1.1 |
| Cc1cc(NC(=O)c2ccoc2COc2ccccc2)no1 | NF-kB reporter | 1.32 |
| CS(=O)(=O)N(CC(=O)NCCSCc1cccc(Cl)c1)c1cccc(Cl)c1 | NF-kB reporter | 1.1 |
| O.S=c1nc[nH]c2nc[nH]c12 | NF-kB reporter | 0.989 |

Quick one: give me NF-kB reporter for each item below, same order please.
1. O=C(c1csc(-c2ccccc2)n1)N1CCCN(C2CCC2)CC1
2. Cl.OC(CCN1CCCC1)(c1ccccc1)C1CCCCC1 (configuration not stated)
3. Cc1ccc(F)c(NC(=O)Nc2ccc(-c3cccc4[nH]nc(N)c34)cc2)c1
4. O=C(O)c1cc2ccccc2[nH]1
5. O=C(Nc1cc2c(cc1Cl)OCCO2)c1cc(Cl)ccc1O
6. CCN(CC)CC(=O)Nc1c(C)cccc1C.Cl

Data returned:
0.937
1.12
1.59
1.02
0.969
1.03

---

- System: RAW-Dual (murine macrophage reporter line)
- PROCEDURE_TEXT: NF-kB reporter (SEAP) activity fold change vs agonist alone; higher = enhanced NF-kB activity
- RUN_CONDITIONS: modulator concentration 10 µM; agonist: MPLA […]
Can you tell me NF-kB reporter for the items I'm about to list?

| COMPOUND | NF-kB reporter |
| --- | --- |
| O=[N+]([O-])c1ccc(N2CCOCC2)c(-c2nnn[nH]2)c1 | 0.918 |
| CN1CCN(CC(O)Cn2c3ccccc3c3ccccc32)CC1.O=C(O)C(=O)O (stereo unspecified) | 0.983 |
| CC(C)CSc1nnc2c(n1)[nH]c1ccccc12 | 0.967 |
| CCOc1ccccc1OCCCCOc1cccc(Br)c1 | 0.968 |

Quick one: give me NF-kB reporter for each item below, same order please.
1. CSc1ccc(C(=O)O)s1
2. Cc1ccccc1N=Nc1ccc(NC(=O)c2ccnn2C)c(C)c1

Data returned:
1. 1.03
2. 0.946

---

- System: RAW-Dual (murine macrophage reporter line)
- PROCEDURE_TEXT: IRF reporter (Lucia luciferase) activity fold change vs agonist alone; higher = enhanced IRF activity
- RUN_CONDITIONS: modulator concentration 10 µM; agonist: MPLA […]
Can you tell me IRF reporter for the items I'm about to list?
One number for each entry.

Answered cases to consult:
| COMPOUND | MEASURED_ON | ENDPOINT_RESULT |
| --- | --- | --- |
| CNC(=O)Cc1cn(Cc2ccccc2)c2ccccc12 | RAW-Dual (murine macrophage reporter line) | 1.05 |
| Cl.Cl.O=C(O)COCCN1CCN([C@H](c2ccccc2)c2ccc(Cl)cc2)CC1 | RAW-Dual (murine macrophage reporter line) | 0.97 |
| O=c1sn(-c2cccc3ccccc23)c(=O)n1Cc1ccccc1 | RAW-Dual (murine macrophage reporter line) | 0.81 |

Quick one: give me IRF reporter for each item below, same order please.
1. O=C(Cn1cc(S(=O)(=O)c2ccc(F)cc2)c2ccccc21)N1CCCCCC1
2. CCOc1ccc(NC(=O)CC2Nc3cccc4cccc(c34)NC2=O)cc1 (centres undefined)
3. CCOc1ccc(C=C2SC(=S)N(C)C2=O)cc1
4. CN1C(CC(=O)c2ccccc2)CCCC1CC(O)c1ccccc1.Cl (centres undefined)
5. COC(=O)c1cc(NC(=O)c2cc(OC)c(OC)cc2[N+](=O)[O-])cc(C(=O)OC)c1
6. CC(C)NCC(O)COc1ccccc1C(C)(C)C.Cl (centres undefined)
7. COc1ccc(Nc2nc(Nc3ccc4ncccc4c3)nc(N3CCOCC3)n2)cc1

Data returned:
1.3
1.25
1.3
1.03
1.22
0.952
2.74

Quick one: give me IRF reporter for each item below, same order please.
1. COC(=O)C1=C(C)N(Cc2ccccc2)C(=O)C1
2. CCOC(=O)CNS(=O)(=O)c1ccc([N+](=O)[O-])cc1
3. COc1c(-c2ccc3cc(NS(C)(=O)=O)ccc3c2)cc(-n2ccc(=O)[nH]c2=O)cc1C(C)(C)C
4. O=C(CCC(=O)Nc1ccccc1)NN=Cc1ccc(Cl)cc1
5. Cc1ccc(COc2cccc(C=C3SC(=S)NC3=O)c2)cc1
6. Nc1ccc(S(N)(=O)=O)cc1

Data returned:
1: 1.42; 2: 1.09; 3: 1.2; 4: 1.22; 5: 1.3; 6: 0.904

Quick one: give me IRF reporter for each item below, same order please.
1. CCC(=O)N1c2ccccc2NC2=C(C(=O)CC(c3ccccc3Cl)C2)C1c1ccc(C)cc1 (centres undefined)
2. C[N+]1(C)CCC(OC(=O)C(O)(c2ccccc2)C2CCCC2)C1 (centres undefined) [Prestw-746]
3. Brc1ccc2ncnc(Nc3ccccc3)c2c1
4. COc1ccc(Cl)cc1C(=O)Nc1cc(C(F)(F)F)cc(C(F)(F)F)c1
5. O=c1cc2c(nn1CC1CCN(CC3(O)CCOCC3)CC1)CCCC2
6. CC1(C)COC(=O)C1=NNc1ccc([N+](=O)[O-])cc1
7. Br.Fc1ccc(-c2csc(Nc3ccc4c(c3)OCO4)n2)cc1
8. Cc1ccc(C(=O)NC(=Cc2cccc3ccccc23)C(=O)N2CCCC2)cc1

Data returned:
1. 1.23
2. 1.13
3. 0.731
4. 1.19
5. 1.04
6. 1.18
7. 1.29
8. 1.15

Quick one: give me IRF reporter for each item below, same order please.
1. Clc1ccccc1C1Nc2cccc3cccc(c23)N1
2. NNc1ncnc2scc(-c3ccc(Cl)cc3)c12
3. CCN1CCN(c2nc3c(c(=O)[nH]c(=O)n3C)n2CC(O)COc2cc(C)ccc2C(C)C)CC1 (centres undefined)
4. COc1ccc(OC)c(-c2csc(NC(=O)Cc3ccc(F)cc3)n2)c1
5. COC(c1ccccc1)(c1ccccc1)[C@H](Oc1nc(C)cc(C)n1)C(=O)O
6. O=C(Nc1ccc([N+](=O)[O-])cc1)Nc1ccc(Cl)cn1
7. CCOC(=O)C1=C(C)NC(C)=C(C(=O)OCC)C1c1ccc(O)cc1
8. CC(C)(C)c1cc(C(=O)Oc2cccc3cccnc23)cc(C(C)(C)C)c1

Data returned:
0.792
1.48
1.48
1.38
1.15
1.61
0.966
1.23

Quick one: give me IRF reporter for each item below, same order please.
1. CC1=NN(c2ccc(C)c(C)c2)C(=O)/C1=N\Nc1cccc(-c2cccc(C(=O)O)c2)c1O.NCCO.NCCO
2. N#Cc1c(N=Cc2ccc(Br)cc2)sc2c1CCCC2
3. C=CC(=O)Nc1cccc(Nc2nc(Nc3ccc(N4CCN(C(C)=O)CC4)cc3OC)ncc2C(F)(F)F)c1
4. COc1ccc(Nc2nc(N3CCCCC3)c3cnn(C)c3n2)cc1

Data returned:
1: 1.2; 2: 1; 3: 0.406; 4: 1.23

Quick one: give me IRF reporter for each item below, same order please.
1. COc1ccc2ncc(S(=O)(=O)c3ccccc3)c(N3CCN(c4ccccc4)CC3)c2c1
2. CCOc1ccccc1NC(=O)NCCc1csc(-n2nc(C)cc2C)n1

Data returned:
1: 1.13; 2: 0.938

Quick one: give me IRF reporter for each item below, same order please.
1. Brc1ccc2ncnc(NCc3cccnc3)c2c1
2. CC(C)Cn1cc(Cl)c(=O)n(CC(C)C)c1=O
3. COc1ccccc1-c1cc(-c2ccccc2)nc(SCC(=O)c2cc3ccccc3oc2=O)c1C#N
4. O=C(c1ccc(Cl)cc1)c1ccc(N2CCCCC2)c([N+](=O)[O-])c1
5. CC(Oc1cccc(Cl)c1)C(=O)Nc1nncs1 (centres undefined)
6. NC(N)=NN=Cc1ccc(OS(=O)(=O)c2ccccc2)cc1

Data returned:
1: 0.641; 2: 0.991; 3: 1.07; 4: 1.33; 5: 1.05; 6: 1.04
